Items are presented alongside their recorded IC50.
Target: RmTIM (TIM from R. microplus) (Rhipicephalus microplus, UniProt A8B3A8)
Sequence (A8B3A8 1-249): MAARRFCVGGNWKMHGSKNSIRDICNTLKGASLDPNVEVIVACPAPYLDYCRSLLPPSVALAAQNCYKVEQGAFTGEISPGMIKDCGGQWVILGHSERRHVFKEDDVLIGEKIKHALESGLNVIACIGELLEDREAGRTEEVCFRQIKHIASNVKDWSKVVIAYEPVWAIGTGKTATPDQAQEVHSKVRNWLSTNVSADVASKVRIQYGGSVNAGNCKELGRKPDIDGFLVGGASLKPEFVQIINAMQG
Assay: biochemical
Settings: read-out: IC50 (µM) RmTIM

Cc1ccc(/C=C/C=N/N2CCN(C/C=C/c3ccccc3)CC2)o1 [Compound 222]; 50 to 100 µM
Cc1ccc(-c2nsc(=O)[nH]2)cc1 [Compound 161]; 25 µM
CC1(C)[N+]([O-])=c2ccc(/C=C/c3ccccc3)cc2=[N+]1[O-] [Compound 39]; 50 to 100 µM
O=[N+]([O-])c1ccc(/C=C/C=N/NC(=S)Nc2ccccc2)o1 [Compound 99]; ~100 µM
O=C(N/N=C/c1c(-c2ccccc2)no[n+]1[O-])c1cnn(-c2ccccc2)c1 [Compound 134]; ~100 µM
Cc1c(CNc2ccc3ccccc3c2)no[n+]1[O-] [Compound 146]; ~100 µM
C=CCn1c(-c2ccc(OC)cc2)cs/c1=N/N=C/c1ccc([N+](=O)[O-])s1 [Compound 70]; ~100 µM
C=CCNC(=S)N/N=C/c1ccc2c(c1)[n+]([O-])c(C)c(C)[n+]2[O-] [Compound 179]; ~100 µM
Clc1ccc(-c2csc(N/N=C/C=C/c3ccco3)n2)cc1 [Compound 81]; 50 to 100 µM
O=C1C(=Cc2ccc([N+](=O)[O-])o2)C(=O)N(Cc2ccccc2)S(=O)(=O)N1Cc1ccccc1 [Compound 52]; 50 to 100 µM

Now for the molecule whose IC50 we want.
Tell me the measured IC50 of Cc1c(C=O)no[n+]1[O-] [Compound 136] , please.
~100 µM
